Sourced from ChEMBL document CHEMBL3792379

Assay: Neuroprotective activity against glutamate-induced cell death in rat PC12 cells assessed as cell viability at 0.1 uM after 24 hrs by MTT assay
Format: functional
Details: PC-12, 24 h, read-out: Activity
recorded metric: viability at 0.1 µM

| item smiles | assay value |
| --- | --- |
| COC(=O)c1ccccc1CN1CCN(C(=O)COc2ccc(Cl)cc2)CC1 | 39.9% |
| COc1ccccc1OCC(=O)N1CCN(C(c2ccc(F)cc2)c2ccc(F)cc2)CC1 | 32% |
| Cc1ccc(C(c2ccc(C)cc2)N2CCN(C(=O)COc3ccc4ccccc4c3)CC2)cc1 | 4.75% |
| CCOc1ccc(CN2CCN(C(=O)COc3ccccc3C)CC2)cc1 | 35.3% |
| Cc1ccccc1OCC(=O)N1CCN(C(c2ccc(F)cc2)c2ccc(F)cc2)CC1 | 7.92% |
| COc1ccccc1OCC(=O)N1CCN(Cc2ccc(Br)cc2)CC1 | 38% |
| COc1ccc(OCC(=O)N2CCN(C(c3ccc(OC)cc3)c3ccc(OC)cc3)CC2)cc1 | 59.4% |
| COc1ccc(/C=C/C(=O)N2CCN(C(c3ccc(F)cc3)c3ccc(F)cc3)CC2)cc1 | 71% |
| CCOc1ccccc1CN1CCN(C(=O)COc2ccc3ccccc3c2)CC1 | 29.8% |
| COC(=O)c1ccccc1CN1CCN(C(=O)COc2ccccc2OC)CC1 | 23.2% |
